The measurements presented in this section are drawn from patent US20210388087A1.

tgt: T1, Human CD137 ECD (human)
T1 construct: entry includes C-terminal His-tag and biotin acceptor peptide; also called human CD137 extracellular domain; 4-1BB
procedure_text: Biacore SPR, vs parent H183/L072
For each of the binders below, state its fold change of affinity.

Query string: Bench note: what fold change of affinity did H183/L072 VL Q27Y (antibody, name in Kabat numbering, V domains shown, Dual-Ig) VH: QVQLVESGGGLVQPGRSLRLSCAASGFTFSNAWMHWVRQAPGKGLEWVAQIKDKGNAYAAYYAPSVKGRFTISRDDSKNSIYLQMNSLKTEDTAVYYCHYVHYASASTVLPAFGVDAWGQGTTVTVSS VL: DIVMTQSPLSLPVTPGEPASISCQASYELVHMNRNTYLHWYQQKPGQAPRLLIYKVSNRFPGVPDRFSGSGSGTDFTLKISRVEAEDVGVYYCAQGTSVPFTFGQGTKLEIK show?
Result string: 0.7 fold

Query string: Entry H183/L072 VL K50T (antibody, name in Kabat numbering, V domains shown, Dual-Ig) VH: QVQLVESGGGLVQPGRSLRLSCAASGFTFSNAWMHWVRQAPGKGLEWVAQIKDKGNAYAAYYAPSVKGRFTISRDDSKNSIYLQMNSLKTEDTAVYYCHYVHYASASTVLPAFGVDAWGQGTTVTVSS VL: DIVMTQSPLSLPVTPGEPASISCQASQELVHMNRNTYLHWYQQKPGQAPRLLIYTVSNRFPGVPDRFSGSGSGTDFTLKISRVEAEDVGVYYCAQGTSVPFTFGQGTKLEIK please
Result string: 0.2 fold

Query string: Entry H183/L072 VL R54E (antibody, name in Kabat numbering, V domains shown, Dual-Ig) VH: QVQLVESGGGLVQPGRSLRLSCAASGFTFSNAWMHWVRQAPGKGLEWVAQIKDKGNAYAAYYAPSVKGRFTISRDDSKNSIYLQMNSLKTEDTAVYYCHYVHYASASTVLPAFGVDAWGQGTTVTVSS VL: DIVMTQSPLSLPVTPGEPASISCQASQELVHMNRNTYLHWYQQKPGQAPRLLIYKVSNEFPGVPDRFSGSGSGTDFTLKISRVEAEDVGVYYCAQGTSVPFTFGQGTKLEIK please
Result string: 0.6 fold
